assay-remarks: Rodent pharmacokinetics, male CD1 mouse, plasma PK
Assay type: in vivo
test-context: male, CD1, mouse, plasma, po, 10 mg/kg, HCl Salt
Protocol: Formulation: 10% DMSO, 90% Saline Dosing: 10 mg/kg P.O. and 5 mg/kg I.V. Plasma PK Summary: Formulation: 10% DMSO, 90% Saline Dosing: 10 mg/kg P.O. and 5 mg/kg I.V.

# smiles-representation, AUC [ng·h/mL]
rows = [
    ("c1cc(-c2nc(N3CCOCC3)c3oc4ncc(CN5CCCCC5)cc4c3n2)c2cc[nH]c2c1", 849),
]

====

assay-remarks: Rodent pharmacokinetics, male CD1 mouse, plasma PK
Type: in vivo
test-context: male, CD1, mouse, plasma, iv, 5 mg/kg, Mesylate Salt
Recorded AUC for the following compounds
metric: AUC

# compound, metric, value-measured
rows = [
    ("c1cc(-c2nc(N3CCOCC3)c3oc4ncc(CN5CCCCC5)cc4c3n2)c2cc[nH]c2c1 [Example I in WO2011/021038]", "AUC", "1240 ng·h/mL"),
    ("c1cc(-c2nc(N3CCOCC3)c3oc4ncc(CN5C[C@@H]6C[C@H]5CO6)cc4c3n2)c2cc[nH]c2c1 [Example A]", "AUC", "3900 ng·h/mL"),
]

====

The molecules listed here are annotated with their clearance.
assay-remarks: Rodent pharmacokinetics, male Balb/c mouse, plasma PK
Type: in vivo
test-context: male, Balb/c, mouse, plasma, iv, 3 mg/kg, Mesylate Salt

# smiles-representation, endpoint-unit, clearance
data = [
    ("c1cc(-c2nc(N3CCOCC3)c3oc4ncc(CN5CCC56COC6)cc4c3n2)c2cc[nH]c2c1", "mL/min/kg", 25.8),
    ("c1cc(-c2nc(N3CCOCC3)c3oc4ncc(CN5CCC6(CC5)COC6)cc4c3n2)c2cc[nH]c2c1", "mL/min/kg", 33.1),
]

====

Some compounds, each annotated with its measured AUC(0-t).
assay-remarks: Rodent pharmacokinetics, male Balb/c mouse, plasma PK
Format: in vivo
test-context: plasma, IV, 3 mg/kg, Mesylate Salt
Description: Animals in Group 1 were administered intravenously with Example B solution formulation in 20% Propylene Glycol, 50% of PEG 400 and 30% of (20% HPβCD in water) via tail vein at a dose of 3 mg/kg. Animals in Group 2 were administered with oral solution formulation of Example B in 20% Propylene Glycol, 50% of PEG 400 and 30% of (20% HPβCD in water) at a dose of 10 mg/kg; Dosing: 10 mg/kg P.O. and 3 mg/kg I.V. […]

# smiles-representation, AUC(0-t) [ng·h/mL]
rows = [
    ("c1cc(-c2nc(N3CCOCC3)c3oc4ncc(CN5CCC6(CC5)COC6)cc4c3n2)c2cc[nH]c2c1", 1510),
    ("c1cc(-c2nc(N3CCOCC3)c3oc4ncc(CN5CCC56COC6)cc4c3n2)c2cc[nH]c2c1", 1920),
]

====

assay-remarks: Rodent pharmacokinetics, male Balb/c mouse, plasma PK
Assay type: in vivo
test-context: plasma, PO, 10 mg/kg, Mesylate Salt
metric: Cmax (µg/mL)

# molecule, value-measured
data = [
    ("c1cc(-c2nc(N3CCOCC3)c3oc4ncc(CN5CCC56COC6)cc4c3n2)c2cc[nH]c2c1 [Example G]", 0.833),
    ("c1cc(-c2nc(N3CCOCC3)c3oc4ncc(CN5CCC6(CC5)COC6)cc4c3n2)c2cc[nH]c2c1 [Example B]", 0.78),
]
